- Test Description: Toxicity to mice (LD50, single intraperitoneal administration)
- Recorded Conditions: mouse, in vivo, ip, read-out: LD₅₀
Observed Property: LD50

// solved cases for LD50 follow
N=C(N)NCCCCCCC(=O)N[C@@H](CO)C(=O)NCCCCNCCCN [(5)]	12.5 to 25 mg/kg
N=C(N)NCCCCCCC(=O)NC(O)C(=O)NCCCCNCCCN (centres unmarked) [(1)]	25 to 50 mg/kg
N=C(N)NCCCCCCCCC(=O)NC(O)C(=O)NCCCCNCCCN (centres unmarked) [(3)]	12.5 to 25 mg/kg
N=C(N)NCCCCC=CC(=O)NC(O)C(=O)NCCCCNCCCN (centres unmarked) [(11)]	25 to 50 mg/kg
COC(NC(=O)C=CCCCCNC(=N)N)C(=O)NCCCCNCCCN (centres unmarked) [(10)]	25 to 50 mg/kg
N=C(N)Nc1ccc(CCCCC(=O)N[C@@H](CO)C(=O)NCCCCNCCCN)cc1 [(9)]	25 to 50 mg/kg
N=C(N)Nc1ccc(CCCC(=O)NCC(=O)NCCCCNCCCN)cc1 [(6)]	25 to 50 mg/kg
COC(NC(=O)CCCCCCNC(=N)N)C(=O)NCCCCNCCCN (centres unmarked) [(2)]	12.5 to 25 mg/kg

Form field LD50, entry N=C(N)NCCCCCCC(=O)NCC(=O)NCCCCNCCCN [(4)] : 12.5 to 25 mg/kg

Form field LD50, entry N=C(N)Nc1ccc(CCCC(=O)N[C@@H](CO)C(=O)NCCCCNCCCN)cc1 [(7)] : 25 to 50 mg/kg

Form field LD50, entry N=C(N)NCc1ccc(CCC(=O)N[C@@H](CO)C(=O)NCCCCNCCCN)cc1 [(8)] : 25 to 50 mg/kg
